We begin with a simple list: items and their reported cell viability.
# Tested on: NOMO-1
# Test method notes: cell viability (% survival relative to DMSO control, bortezomib = 0%); higher = less cytotoxic
# Applied conditions: 1000 nM; 72 h

Molecule	cell viability / %
CCCCC/C=C\C/C=C\C/C=C\C/C=C\CCCCN1C(=O)C=CC1=O [N-Arachidonylmaleimide]	96.5
CC[C@@]1(O)C(=O)OCc2c1cc1n(c2=O)Cc2cc3c(CN(C)C)c(O)ccc3nc2-1	2.17
NS(=O)(=O)c1ccc([N+](=O)[O-])cc1 [4-Nitrobenzenesulfonamide]	103
Cc1coc2c1C(=O)C(=O)c1c-2ccc2c1CCCC2(C)C	102
CCCCCCCCCCC[C@@H](C[C@@H]1OC(=O)[C@H]1CCCCCC)OC(=O)[C@H](CC(C)C)NC=O	106
O=C1O[C@H]([C@@H](O)CO)C(O)=C1O [Vitamin C (ascorbate)]	97.8
O=C(O)C[C@@]1(O)C[C@@H](CCCCCCc2ccc(Cl)cc2Cl)OC1=O	98.8
N/C(=N\CCCC(N)C(=O)O)N[N+](=O)[O-] (stereo not given)	91.5
Nc1nc(Cl)nc2c1ncn2[C@H]1C[C@H](O)[C@@H](CO)O1	1.41
C[C@](N)(Cc1ccc(O)cc1)C(=O)O	93.6

###

# System: HL-60
# Test method notes: cell viability (% survival relative to DMSO control); higher = less cytotoxic
# Applied conditions: 1 µM; 72 h; co-treatment: pictilisib 100 nM

Molecule	cell viability
CC[C@@]1(O)C(=O)OCc2c1cc1n(c2=O)Cc2cc3c(CN(C)C)c(O)ccc3nc2-1 [Topotecan]	5.76%
Cc1ccccc1C(C(=O)NC1CCCCC1)N(C(=O)Cn1ccnc1C)c1cccc(F)c1 (centres undefined) [AGI-5198]	102%
O=C1c2cc([N+](=O)[O-])ccc2-n2c1nc1ccccc1c2=O [GNF-Pf-3777]	78.6%
Oc1ccc(Nc2nc(-c3ccc(Cl)cc3)cs2)cc1 [SKI II]	88%

###

# Test system: myeloid leukemia patient primary cells Pat.6
# Test method notes: cell viability (% survival relative to DMSO control); higher = less cytotoxic
# Applied conditions: 10 nM; 72 h

Molecular string	Output unit	cell viability
N#CC(C#N)=NNc1ccc(OC(F)(F)F)cc1	%	97.4
O=C(O)C1=CC(=C(c2ccc(O)c(C(=O)O)c2)c2ccc(O)c(C(=O)O)c2)C=CC1=O	%	97.5
CN(C)C(=O)n1nnnc1Cc1ccc(-c2ccccc2)cc1	%	70.8

###

We begin with a simple list: items and their reported cell viability.
# Tested on: HL-60
# Test method notes: cell viability (% survival relative to DMSO control); higher = less cytotoxic
# Applied conditions: 0.01 µM; 72 h; co-treatment: pictilisib 100 nM
Observation type: cell viability (%)

Compound	Val
CCOP(=O)(OCC)C(=Cc1cc(C(C)(C)C)c(O)c(C(C)(C)C)c1)P(=O)(OCC)OCC	99.3
N/C(=N\CCCC(N)C(=O)O)N[N+](=O)[O-] (configuration not stated)	95.8
O=c1oc2c(O)c(O)cc3c(=O)oc4c(O)c(O)cc1c4c23	104
Nc1ccccc1C(=O)C[C@H](N)C(=O)O	95.5
CCN(CC)CCCC(C)Nc1ccnc2cc(Cl)ccc12 (configuration not stated)	67.7
CC1(C)[C@@H](O[C@H]2O[C@H](C(=O)O)[C@@H](O)[C@H](O)[C@H]2O[C@@H]2O[C@H](C(=O)O)[C@@H](O)[C@H](O)[C@H]2O)CC[C@]2(C)[C@H]3C(=O)C=C4[C@@H]5C[C@@](C)(C(=O)O)CC[C@]5(C)CC[C@@]4(C)[C@]3(C)CC[C@@H]12	99.5
O=C(O)C[C@@]1(O)C[C@@H](CCCCCCc2ccc(Cl)cc2Cl)OC1=O	109

###

# Test system: HL-60
# Test method notes: cell viability (% survival relative to DMSO control, bortezomib = 0%); higher = less cytotoxic
# Applied conditions: 100 nM; 72 h
We begin with a simple list: items and their reported cell viability.
Observation type: cell viability (%)

Molecule	Tested on	Val
COc1cc(/C=C/C(=O)N2CCC=CC2=O)cc(OC)c1OC	HL-60	102
O=C(O)C(=O)CBr	HL-60	103
CC(C)c1nc(CN(C)C(=O)N[C@H](C(=O)N[C@@H](Cc2ccccc2)C[C@H](O)[C@H](Cc2ccccc2)NC(=O)OCc2cncs2)C(C)C)cs1	HL-60	113
CC[C@H](C)C(=O)O[C@H]1C[C@@H](C)C=C2C=C[C@H](C)[C@H](CC[C@@H]3C[C@@H](O)CC(=O)O3)[C@H]21	HL-60	101
COc1ccc(-c2ccccc2)cc1NS(=O)(=O)c1cc(Cl)cc(Cl)c1O	HL-60	100
O=C(NNc1ccccc1)c1ccncc1	HL-60	90.5
O=c1oc2c(O)c(O)cc3c(=O)oc4c(O)c(O)cc1c4c23	HL-60	90.7
O=C(O)c1cc(N=Nc2ccc(S(=O)(=O)Nc3ccccn3)cc2)ccc1O	HL-60	135
O=C1c2cc([N+](=O)[O-])ccc2-n2c1nc1ccccc1c2=O	HL-60	105
CC(C)(C#N)c1cc(Cn2cncn2)cc(C(C)(C)C#N)c1	HL-60	89.3
O=C(O)Cn1nnc(-c2cc(N3CCC(Oc4cc(F)ccc4Br)CC3)no2)n1	HL-60	108
CN(C)c1cc(NC(=O)CNC(C)(C)C)c(O)c2c1C[C@H]1C[C@H]3[C@H](N(C)C)C(=O)C(C(N)=O)C(=O)[C@@]3(O)C(=O)C1C2=O (some centres undefined)	HL-60	69.6
NS(=O)(=O)c1ccc([N+](=O)[O-])cc1 [4-Nitrobenzenesulfonamide]	HL-60	110
C=C(C=NNC(=N)N)NNC(=N)N	HL-60	148
CCCc1cc(-c2nc(-c3ccc(C)cc3)cs2)ccn1	HL-60	95.5
Cc1c(-c2ccc(-c3ccccc3F)cc2)nc2ccc(F)cc2c1C(=O)O	HL-60	93.2
COc1ccc2c(C(=S)N(C)CC(=O)O)cccc2c1C(F)(F)F	HL-60	122
CC(C)c1onc(-c2c(Cl)cccc2Cl)c1COc1ccc(/C=C/c2cccc(C(=O)O)c2)c(Cl)c1	HL-60	89.7
N#CC(C#N)=NNc1ccc(OC(F)(F)F)cc1	HL-60	109

###

# System: myeloid leukemia patient primary cells Pat.3
# Test method notes: cell viability (% survival relative to DMSO control); higher = less cytotoxic
# Applied conditions: 10000 nM; 72 h
Output 1 for records whose cell viability is lower than 6%, 0 for records at or above 6%.

Compound	Qualitative label
O=C1O/C(=C/Br)CCC1c1cccc2ccccc12 (stereo not drawn) [Bromoenol Lactone]	1
CCC(=O)N1CCN(c2ccc(-n3c(=O)ccc4cnc5ccc(-c6cnc7ccccc7c6)cc5c43)cc2C(F)(F)F)CC1 [Torin1]	0
COC(=O)[C@]12CCC(C)(C)C[C@H]1[C@H]1C(=O)C=C3[C@@]4(C)C=C(C#N)C(=O)C(C)(C)[C@@H]4CC[C@@]3(C)[C@]1(C)CC2 [Bardoxolone methyl]	1
Oc1ccc(Nc2nc(-c3ccc(Cl)cc3)cs2)cc1 [SKI II]	1
O=C(O)Cn1nnc(-c2cc(N3CCC(Oc4cc(F)ccc4Br)CC3)no2)n1 [MK-8245]	0
CC[C@@]1(O)C(=O)OCc2c1cc1n(c2=O)Cc2cc3c(CN(C)C)c(O)ccc3nc2-1 [Topotecan]	1
N#CC(C#N)=NNc1ccc(OC(F)(F)F)cc1 [FCCP]	1

###

# Tested on: NOMO-1
# Test method notes: cell viability (% survival relative to DMSO control, bortezomib = 0%); higher = less cytotoxic
# Applied conditions: 1000 nM; 72 h
We begin with a simple list: items and their reported cell viability.
Observation type: cell viability (%)

Compound	Tested on	Output unit	Val
Cc1c(-c2ccc(-c3ccccc3F)cc2)nc2ccc(F)cc2c1C(=O)O	NOMO-1	%	104
N#CC(C#N)=NNc1ccc(OC(F)(F)F)cc1	NOMO-1	%	93.5
CCCCN1C[C@H](O)[C@@H](O)[C@H](O)[C@H]1CO	NOMO-1	%	103
Cc1cn([C@H]2C[C@H](O)[C@@H](COP(=O)(O)OP(=O)(O)O)O2)c(=O)[nH]c1=O [Thymidine diphosphate]	NOMO-1	%	98.6
CCC(=O)N1CCN(c2ccc(-n3c(=O)ccc4cnc5ccc(-c6cnc7ccccc7c6)cc5c43)cc2C(F)(F)F)CC1	NOMO-1	%	47.5

###

# System: HEL
# Applied conditions: 72 h

Molecular string	Sign qualifier	IC50 (cell viability) [µM]
CCC(=O)N1CCN(c2ccc(-n3c(=O)ccc4cnc5ccc(-c6cnc7ccccc7c6)cc5c43)cc2C(F)(F)F)CC1	=	0.594
CC(C)c1onc(-c2c(Cl)cccc2Cl)c1COc1ccc(/C=C/c2cccc(C(=O)O)c2)c(Cl)c1	>	10
COc1ccc(CNC(=O)Nc2ncc([N+](=O)[O-])s2)cc1	>	10
O=C1c2cc([N+](=O)[O-])ccc2-n2c1nc1ccccc1c2=O	=	0.934
Cc1c(-c2ccc(-c3ccccc3F)cc2)nc2ccc(F)cc2c1C(=O)O	=	1.48
